Tested on: haematopoietic & lymphoid tumors (13 cell lines)
Assay: CellTiter-Glo Viability Assay, haematopoietic & lymphoid tumors
Assay type: cell-based
Conditions: Homo sapiens, DND41; DND-41 cell line; inhibition of cancer cell proliferation; read-out: Haematopoietic & Lymphoid tumors, EC50 (μM) DND-41
Experimental: Fifty-one human cancer cell lines (breast cancer (8 cell lines), colorectal cancer (6 cell lines), haematopoietic & lymphoid tumors (13 cell lines), liver cancer (3 cell lines), lung cancer (4 cell lines), ovarian cancer (4 cell lines), pancreatic cancer (8 cell lines), and prostate cancer (5 cell lines)) were tested to determine the effects of representative compounds of Formulas (I)-(XII) on cellular proliferation, as evaluated using the CellTiter-Glo® Viability Assay. […]
Here, each record is paired with measured EC50 data.
Your answer is read as µM, so omit the unit and give the number.

structure_smiles=Cn1ncc(-c2ccc3cnc(NC(=O)C4CC5(C4)CN(CCF)C5)cc3c2)c1CN1CCCCC1 recorded_number=0.854
structure_smiles=Cc1cc2ncc(-c3ccc4cnc(NC(=O)c5ccnc(N6CCN(C)CC6)c5)cc4c3)cc2[nH]1 recorded_number=0.538

query: For the compound `Cc1n[nH]c2ccc(-c3cncc(N[C@H]4CC[C@H](O)CC4)n3)cc12` , report EC50.
result: 0.635

query: For the compound `O=C1CCc2cccc(c2)-c2cncc3[nH]c(nc23)-c2n[nH]c3ccc(cc23)-c2cncc(c2)N1` , report EC50.
result: 0.776

====

system: haematopoietic & lymphoid tumors (13 cell lines); assay: CellTiter-Glo Viability Assay, haematopoietic & lymphoid tumors; assay type: cell-based; details: Homo sapiens, JeKo-1, read-out: Haematopoietic & Lymphoid tumors, EC50 (μM) JeKo-1
Here, each record is paired with measured EC50 data.
Your answer is read as µM, so omit the unit and give the number.

Recorded results for 2 compounds are shown here.
structure_smiles=CN1CCC(N(C)c2cc(C(=O)Nc3cc4cc(-c5cnn(C)c5)ccc4cn3)ccn2)CC1 assay_endpoint=EC50 recorded_number=0.054
structure_smiles=CN1CCN(C(=O)C(C)(C)c2ccc(C(=O)Nc3cn4cc(-c5ccncc5)ccc4n3)cc2)CC1 assay_endpoint=EC50 recorded_number=1.22

Please look at the following compound next.
query: For the compound `CN1CCN(c2cc(C(=O)Nc3cc4cc(-c5cnn(C)c5)ccc4cn3)ccn2)CC1` , report EC50.
result: 0.081

====

system: pancreatic cancer (8 cell lines); experiment: CellTiter-Glo Viability Assay, pancreatic cancer; format: cell-based; settings: Homo sapiens, CAPAN-1; Capan1 cell line; inhibition of cancer cell proliferation; read-out: Pancreatic cancer, EC50 Capan1
Here, each record is paired with measured pEC50 data.
Remember the convention: pEC50 equals -log10 of concentration in molar.

molecule="Cc1ncc(C(=O)Nc2cc3nc(-c4cnc(C)n4C)ccc3cn2)s1 [Compound 82]" recorded_number=6.57

Please look at the following molecule next.
query: For the molecule CN1CCC(Oc2ccc(C(=O)Nc3cc4cc(-c5cnn(C)c5)ccc4cn3)cc2)CC1 [Compound 68] , report pEC50.
result: 6.09

====

system: liver cancer (3 cell lines); experiment: CellTiter-Glo Viability Assay, liver cancer; format: cell-based; details: Homo sapiens; PLC/PRF/5 cell line; inhibition of cancer cell proliferation; read-out: Liver cancer, EC50 PLC/PRF/5
Each record is given true (1) if its reported EC50 is strictly below 1 µM. Records at or above 1 µM are given false (0).

Reference set, count: 5
compound="CN1CCN(c2cc(C(=O)Nc3cc4cc(-c5nnc(N(C)C)s5)ccc4cn3)ccn2)CC1 [Compound 84]" assigned_category="false (0)"
compound="CN1CCC2(CC1)CN(c1cc(C(=O)Nc3cc4cc(-c5cnn(C)c5)ccc4cn3)ccn1)C2 [Compound 71]" assigned_category="true (1)"
compound="CN1CCN(c2cc(C(=O)Nc3cc4cc(-c5cnn(C)c5)c(F)cc4cn3)ccn2)CC1 [Compound 69]" assigned_category="true (1)"
compound="Cc1n[nH]c2ccc(-c3cncc(N[C@H]4CC[C@H](O)CC4)n3)cc12 [Compound 65]" assigned_category="false (0)"
compound="CN1CCCn2cc(nn2)-c2nccc3[nH]c(nc23)-c2n[nH]c3ccc(cc23)-c2cncc(c2)C1 [Compound 57]" assigned_category="false (0)"

query: Please check: EC50 for CN(C)Cc1cncc(-c2cnc3[nH]nc(-c4nc5c(-c6cc(F)cc(N7CCOCC7)c6)cncc5[nH]4)c3c2)c1 [Compound 46] , strictly under 1 µM or not?
result: false (0)

query: Please check: EC50 for CN(C)CCOc1cc(C(=O)Nc2cc3cc(-c4cnn(C)c4)ccc3cn2)ccn1 [Compound 73] , strictly under 1 µM or not?
result: true (1)

query: Please check: EC50 for Cn1ncc(-c2ccc3cnc(NC(=O)C4CC5(C4)CN(CCF)C5)cc3c2)c1CN1CCCCC1 [Compound 77] , strictly under 1 µM or not?
result: false (0)
